Examples of compounds with documented MRT inf follow.
Assay: Pharmacokinetic experiment in mouse
Conditions: plasma, iv, 10 mg/kg
The reply should contain only the number, in h.

These solved cases illustrate the format of a correct answer.
> print(dat)
                                   compound  metric.name  measurement.units  observed.measurement
1  O=C(OCC1CCNCC1)N1CCC(F)(CN[C@@H]2C[C@H]2c2ccccc2)CC1 [(1R,2S)-A43]      MRT inf                  h                  3.18
2  O=C(OCc1ccccc1)N1CCC(F)(CNC2CC2c2ccccc2)CC1 (stereo not shown)      MRT inf                  h                  3.77
3  O=C(OCC1CCN(Cc2ccccc2)CC1)N1CCC(F)(CN[C@@H]2C[C@H]2c2ccccc2)CC1 [(1R,2S)-A90]      MRT inf                  h                  2.93
4  O=C(OCC1CCNCC1)N1CCC(F)(CN[C@@H]2C[C@H]2c2ccccc2)CC1 (relative stereo) [Example A43]      MRT inf                  h                  1.24
5  O=C(OCC1CCN(Cc2ccccc2)CC1)N1CCC(F)(CN[C@@H]2C[C@H]2c2ccccc2)CC1 (relative stereo) [Example A90]      MRT inf                  h                     4

### Prompt Can you share its MRT inf? I mean this compound: N[C@H]1CC[C@](F)(CNC2CC2c2ccccc2)CC1 (stereo partly shown)
### Response 5.69

### Prompt Which MRT inf value is on record for FC1(CN[C@@H]2C[C@H]2c2ccccc2)CCNCC1 (relative stereo) ?
### Response 1.9

* * *

Molecular target: human recombinant MAOB (Homo sapiens (Human))
Sequence (P27338 whole entry): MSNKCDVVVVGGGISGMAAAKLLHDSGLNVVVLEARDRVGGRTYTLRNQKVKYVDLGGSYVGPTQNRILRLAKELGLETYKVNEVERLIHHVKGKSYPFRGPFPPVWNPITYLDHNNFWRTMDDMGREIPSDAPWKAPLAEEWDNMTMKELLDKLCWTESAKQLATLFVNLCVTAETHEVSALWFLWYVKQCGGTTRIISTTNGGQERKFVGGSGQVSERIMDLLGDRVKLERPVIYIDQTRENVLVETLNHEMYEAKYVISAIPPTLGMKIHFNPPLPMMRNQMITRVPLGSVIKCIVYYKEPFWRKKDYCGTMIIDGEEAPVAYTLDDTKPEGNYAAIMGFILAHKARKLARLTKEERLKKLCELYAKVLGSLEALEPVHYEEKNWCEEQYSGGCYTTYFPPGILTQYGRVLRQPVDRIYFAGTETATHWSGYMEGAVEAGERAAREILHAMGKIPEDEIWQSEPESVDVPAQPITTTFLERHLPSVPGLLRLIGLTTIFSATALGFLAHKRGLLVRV
Assay: MAOB in vitro activity (MAO-Glo)
Format: biochemical
metric-name: IC50 (µM)
// units = µM; emit number, no label

### Prompt Using the record for FC1(CN[C@@H]2C[C@H]2c2ccccc2)CCN(c2ccccc2)CC1 (relative stereo) , report its IC50.
### Response 22.1

* * *

Test: Pharmacokinetic experiment in mouse
Conditions: plasma, iv, 10 mg/kg
metric-name: log10 AUC(0-t) (log10 of the value in ng·h/mL)
Log10 applied to AUC(0-t); unit prior to transform: ng·h/mL.

Look over these answered cases.
> print(dat)
                                   compound  observed.measurement
1  O=C(OCC1CCNCC1)N1CCC(F)(CN[C@@H]2C[C@H]2c2ccccc2)CC1 (relative stereo) [Example A43]                  2.94
2  O=C(OCC1CCN(Cc2ccccc2)CC1)N1CCC(F)(CN[C@@H]2C[C@H]2c2ccccc2)CC1 [(1R,2S)-A90]                  3.68
3  O=C(OCC1CCN(Cc2ccccc2)CC1)N1CCC(F)(CN[C@@H]2C[C@H]2c2ccccc2)CC1 (relative stereo) [Example A90]                  3.44
4  O=C(OCC1CCNCC1)N1CCC(F)(CN[C@@H]2C[C@H]2c2ccccc2)CC1 [(1R,2S)-A43]                  3.23
5  FC1(CN[C@@H]2C[C@H]2c2ccccc2)CCNCC1 (relative stereo) [Example A2]                  3.14
6  O=C(OCc1ccccc1)N1CCC(F)(CNC2CC2c2ccccc2)CC1 (stereo not shown) [Example A1]                  4.16

We next turn to a different compound, shown below.
### Prompt What value of measured log10 AUC(0-t) is listed for N[C@H]1CC[C@](F)(CNC2CC2c2ccccc2)CC1 (stereo partly shown) [Example A4] ?
### Response 3.02
